B1: SPDEF (parent)
chain: FQELAGKELCAMSEEQFRQRSPLG

# Variants of: B1
# test_method_notes: protein stability index of a GFP-peptide fusion (GPS, HEK-293T) (PSI 1-6); higher = more stable;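 further: lentivirally expressed fusions sorted by FACS into six bins by GFP to DsRed ratio, PSI derived from sequencing read proportions per bin multiplied by bin number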
# particulars: c terminus: a fixed tail appended
measured_endpoint: protein stability index
When you answer, write just the number.

Task item: Entry under review: FQELAGKELCDMSEEQFRQRSPLG [A11D] . Reported protein stability index?
Reply: 4.66

Task item: Entry under review: FQELAGKEECAMSEEQFRQRSPLG [L9E] . Reported protein stability index?
Reply: 4.93

Task item: Entry under review: FQELAGKELCAMLEEQFRQRSPLG [S13L] . Reported protein stability index?
Reply: 1.71

Task item: Entry under review: FQWLAGKELCAMSEEQFRQRSPLG [E3W] . Reported protein stability index?
Reply: 1.72

Task item: Entry under review: FQELWGKELCAMSEEQFRQRSPLG [A5W] . Reported protein stability index?
Reply: 1.9

Task item: Entry under review: FRELAGKELCAMSEEQFRQRSPLG [Q2R] . Reported protein stability index?
Reply: 3.32

Task item: Entry under review: FQELAGKELCAMSEEGFRQRSPLG [Q16G] . Reported protein stability index?
Reply: 2.74

Task item: Entry under review: FLELAGKELCAMSEEQFRQRSPLG [Q2L] . Reported protein stability index?
Reply: 2.12

Task item: Entry under review: FQELAGKELCAASEEQFRQRSPLG [M12A] . Reported protein stability index?
Reply: 3.57

Task item: Entry under review: FQELAPKELCAMSEEQFRQRSPLG [G6P] . Reported protein stability index?
Reply: 3.7

Task item: Entry under review: FQELAQKELCAMSEEQFRQRSPLG [G6Q] . Reported protein stability index?
Reply: 2.68

Task item: Entry under review: FQELAGKELCAMSEEQFRQRSPYG [L23Y] . Reported protein stability index?
Reply: 2.59

Task item: Entry under review: FQELAMKELCAMSEEQFRQRSPLG [G6M] . Reported protein stability index?
Reply: 2.46

Task item: Entry under review: FQDLAGKELCAMSEEQFRQRSPLG [E3D] . Reported protein stability index?
Reply: 2.1

Task item: Entry under review: FQELAGKELCAMSEWQFRQRSPLG [E15W] . Reported protein stability index?
Reply: 2.56

Task item: Entry under review: FQELAGKELCAMSEKQFRQRSPLG [E15K] . Reported protein stability index?
Reply: 2.24

Task item: Entry under review: FQEFAGKELCAMSEEQFRQRSPLG [L4F] . Reported protein stability index?
Reply: 2.84

Task item: Entry under review: FQELAGKELCAMSEEQFRQRTPLG [S21T] . Reported protein stability index?
Reply: 2.59

Task item: Entry under review: FQELAFKELCAMSEEQFRQRSPLG [G6F] . Reported protein stability index?
Reply: 1.84

Task item: Entry under review: FKELAGKELCAMSEEQFRQRSPLG [Q2K] . Reported protein stability index?
Reply: 3.61

Task item: Entry under review: FQELAGKEHCAMSEEQFRQRSPLG [L9H] . Reported protein stability index?
Reply: 3.9

Task item: Entry under review: FQELAGKELWAMSEEQFRQRSPLG [C10W] . Reported protein stability index?
Reply: 1.9

Task item: Entry under review: FQELAGKELCAMEEEQFRQRSPLG [S13E] . Reported protein stability index?
Reply: 2.61

Task item: Entry under review: FQELAGKELCAMSEEQFRQRSFLG [P22F] . Reported protein stability index?
Reply: 2.43

Task item: Entry under review: FQMLAGKELCAMSEEQFRQRSPLG [E3M] . Reported protein stability index?
Reply: 1.79

Task item: Entry under review: FQELAGKELCAMDEEQFRQRSPLG [S13D] . Reported protein stability index?
Reply: 2.89

Task item: Entry under review: FQELAGKELCAMSMEQFRQRSPLG [E14M] . Reported protein stability index?
Reply: 2.03

Task item: Entry under review: FQELAGKELCAMSEEQFRQRSPLY [G24Y] . Reported protein stability index?
Reply: 2.12

Task item: Entry under review: FQELAGKELCAMSDEQFRQRSPLG [E14D] . Reported protein stability index?
Reply: 2.89

Task item: Entry under review: FQELAGKELCAMSEEQFRQRSPAG [L23A] . Reported protein stability index?
Reply: 3.02

Task item: Entry under review: PQELAGKELCAMSEEQFRQRSPLG [F1P] . Reported protein stability index?
Reply: 4.49

Task item: Entry under review: FQELAGKELCAMSEEQFRQRSPLM [G24M] . Reported protein stability index?
Reply: 2.78

Task item: Entry under review: FQELAGKELCAMSEEQFRQRSPLT [G24T] . Reported protein stability index?
Reply: 2.76

Task item: Entry under review: FQELAGKELCALSEEQFRQRSPLG [M12L] . Reported protein stability index?
Reply: 2.72

Task item: Entry under review: FQELAGKELCAMSEYQFRQRSPLG [E15Y] . Reported protein stability index?
Reply: 2.04

Task item: Entry under review: FQELLGKELCAMSEEQFRQRSPLG [A5L] . Reported protein stability index?
Reply: 1.82

Task item: Entry under review: FQELAGKELCAMSEEQFRQRSCLG [P22C] . Reported protein stability index?
Reply: 2.62

Task item: Entry under review: FQELAGKELCAMSIEQFRQRSPLG [E14I] . Reported protein stability index?
Reply: 1.8

Task item: Entry under review: FQEDAGKELCAMSEEQFRQRSPLG [L4D] . Reported protein stability index?
Reply: 4.38

Task item: Entry under review: FQELAGKELCAMSEEAFRQRSPLG [Q16A] . Reported protein stability index?
Reply: 3.12

Task item: Entry under review: FQELAGKFLCAMSEEQFRQRSPLG [E8F] . Reported protein stability index?
Reply: 2.79

Task item: Entry under review: FQELAGKELCAMSEEQFRQRSPQG [L23Q] . Reported protein stability index?
Reply: 3.58

Task item: Entry under review: FQELAGKELCAMSEEQFRQRDPLG [S21D] . Reported protein stability index?
Reply: 3.26

Task item: Entry under review: FQELAGKELCAMSEEQFRQRSTLG [P22T] . Reported protein stability index?
Reply: 2.63

Task item: Entry under review: FQELAGKELCAMSEEQFRQRSELG [P22E] . Reported protein stability index?
Reply: 3.15

Task item: Entry under review: FQFLAGKELCAMSEEQFRQRSPLG [E3F] . Reported protein stability index?
Reply: 1.95

Task item: Entry under review: FQELAGKPLCAMSEEQFRQRSPLG [E8P] . Reported protein stability index?
Reply: 2.06

Task item: Entry under review: FQKLAGKELCAMSEEQFRQRSPLG [E3K] . Reported protein stability index?
Reply: 3.3

Task item: Entry under review: FQELAGKELCAMSEEQFRQRQPLG [S21Q] . Reported protein stability index?
Reply: 2.98

Task item: Entry under review: FQENAGKELCAMSEEQFRQRSPLG [L4N] . Reported protein stability index?
Reply: 3.8

Task item: Entry under review: FQELAGKELCAMSEEQFPQRSPLG [R18P] . Reported protein stability index?
Reply: 2.92

Task item: Entry under review: FQELAGKELCAMSEEQFRPRSPLG [Q19P] . Reported protein stability index?
Reply: 2.74

Task item: Entry under review: TQELAGKELCAMSEEQFRQRSPLG [F1T] . Reported protein stability index?
Reply: 4.55
